Attribution: the supplement of paper PMC5998384

Below, each entry is listed with its recorded solubility change mitosis (log2).
# Test system: HeLa Kyoto;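 also: synchronized HeLa Kyoto cells (double thymidine block for G1/S, nocodazole release for mitosis), protein amounts in NP-40 versus SDS lysates quantified by mass spectrometry, three biological replicates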
# protocol: solubility change mitosis vs G1/S (difference of NP-40 vs SDS log2 ratios) (log2 ratio difference); higher = more soluble in mitosis
quantity.kind: solubility change mitosis (log2)

item.sequence	quantity.kind	result.value
MAAATLTSKLYSLLFRRTSTFALTIIVGVMFFERAFDQGADAIYDHINEGKLWKHIKHKYENK [UQCR10]	solubility change mitosis (log2)	0.0588
MAAAAVSSAKRSLRGELKQRLRAMSAEERLRQSRVLSQKVIAHSEYQKSKRISIFLSMQDEIETEEIIKDIFQRGKICFIPRYRFQSNHMDMVRIESPEEISLLPKTSWNIPQPGEGDVREEALSTGGLDLIFMPGLGFDKHGNRLGRGKGYYDAYLKRCLQHQEVKPYTLALAFKEQICLQVPVNENDMKVDEVLYEDSSTA [MTHFS]	solubility change mitosis (log2)	0.0622
MAVFADLDLRAGSDLKALRGLVETAAHLGYSVVAINHIVDFKEKKQEIEKPVAVSELFTTLPIVQGKSRPIKILTRLTIIVSDPSHCNVLRATSSRARLYDVVAVFPKTEKLFHIACTHLDVDLVCITVTEKLPFYFKRPPINVAIDRGLAFELVYSPAIKDSTMRRYTISSALNLMQICKGKNVIISSAAERPLEIRGPYDVANLGLLFGLSESDAKAAVSTNCRAALLHGETRKTAFGIISTVKKPRPSEGDEDCLPASKKAKCEG [RPP30]	solubility change mitosis (log2)	-0.0188
MSRYLRPPNTSLFVRNVADDTRSEDLRREFGRYGPIVDVYVPLDFYTRRPRGFAYVQFEDVRDAEDALHNLDRKWICGRQIEIQFAQGDRKTPNQMKAKEGRNVYSSSRYDDYDRYRRSRSRSYERRRSRSRSFDYNYRRSYSPRNSRPTGRPRRSRSHSDNDRFKHRNRSFSRSKSNSRSRSKSQPKKEMKAKSRSRSASHTKTRGTSKTDSKTHYKSGSRYEKESRKKEPPRSKSQSRSQSRSRSKSRSRSWTSPKSSGH [SRSF10]	solubility change mitosis (log2)	0.534
